Assay: ATG_ISRE_CIS: Attagene CIS-FACTORIAL HepG2 Assay for human Interferon Regulatory Factor 1 (IRF1) binding to an Interferon-Stimulated Response Element (ISRE) (AID 2282948)
Conditions: HepG2 ISRE cis-reporter (Attagene), mRNA transcription readout; actives raise or lower the signal
Calls of active or inactive are those of the source. The calls were made as follows: active = hit-call score of the fitted dose curve at least 0.9, where 1 is the maximum; inactive = score below 0.9.
Measured quantity: AC50

Below: 5 compounds and their reported AC50.
>  <Compound>
CC(O)(CS(=O)(=O)c1ccc(F)cc1)C(=O)Nc1ccc(C#N)c(C(F)(F)F)c1 (stereo not drawn)

>  <AC50>
inactive

$$$$
>  <Compound>
CC(C)N(C(=O)CCl)c1ccccc1

>  <AC50>
inactive

$$$$
>  <Compound>
CCCCCCCCCCCCOS(=O)(=O)O

>  <AC50>
inactive

$$$$
>  <Compound>
C#CCOC(=O)/C=C(C)/C=C/CC(C)CCCC(C)C (stereo not drawn)

>  <AC50>
inactive

$$$$
>  <Compound>
CCC[CH2][Sn]([CH2]CCC)([CH2]CCC)[CH2]CCC

>  <AC50>
11.1 µM (active)

$$$$

**Q:** Report AC50 for "CCC[N+](CCC)(CCC)CCC" please.
**A:** inactive

**Q:** Queued: "C=CC(=O)NC(C)(C)CC(C)=O"
**A:** inactive

**Q:** Queued: "O=C(CCl)Nc1ccccc1"
**A:** 54.9 µM (active)

**Q:** Another compound to check: "CC(C)(C)c1ccccc1O"
**A:** inactive

**Q:** Let us now turn to CC(C)=CC1C(C(=O)OCc2cccc(Oc3ccccc3)c2)C1(C)C (stereo not drawn)
**A:** inactive

**Q:** Please answer likewise for CC(C)(COCC1CO1)COCC1CO1 (stereo not drawn)
**A:** inactive

**Q:** Thanks! And "CC(C)O.CC(C)O.OCCN(CCO)CCO.OCCN(CCO)CCO.[Ti]" ?
**A:** inactive

**Q:** Subsequent entry: "Cc1cc(-c2cc(C)c(N)c(C)c2)cc(C)c1N"
**A:** inactive
